Values compiled from patent US20180009797A1.

# TARGET DESC: CCR(9) (Homo sapiens)
# Construct: CCR(9)-expressing cells such as T cell line MOLT-4 cells
# Sequence (P51686 whole entry): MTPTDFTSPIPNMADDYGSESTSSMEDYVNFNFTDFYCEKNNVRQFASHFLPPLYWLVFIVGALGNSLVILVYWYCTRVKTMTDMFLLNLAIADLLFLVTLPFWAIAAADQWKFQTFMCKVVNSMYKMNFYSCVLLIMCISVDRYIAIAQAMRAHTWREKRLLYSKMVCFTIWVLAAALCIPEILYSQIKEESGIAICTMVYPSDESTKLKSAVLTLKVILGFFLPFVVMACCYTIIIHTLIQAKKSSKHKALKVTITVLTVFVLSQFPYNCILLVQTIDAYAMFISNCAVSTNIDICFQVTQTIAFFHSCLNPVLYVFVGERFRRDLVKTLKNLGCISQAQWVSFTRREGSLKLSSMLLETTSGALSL
# PROTOCOL NOTES: serum chemotaxis (serum migration) assay, MOLT-4 cells in human serum, TECK
# CONDITIONS USED: read-out: A2
# Method: In vitro cell chemotaxis assays can be performed (but are not limited to this format) using the 96-well microchamber (called ChemoTX™). The ChemoTX™ system is well known to those skilled in the art as a type of chemotactic/cell migration instrument. […] At the end of the incubation, the number of cells that migrated across the membrane into the lower chamber is then quantified. […]
Consider the following compounds; for each one, report its EC50.

Example cases with answers are listed next.
- MOL SMILES: "Cc1cc(NS(=O)(=O)c2cc(F)c(C(C)(C)C)c(F)c2)n(-c2cccc3ncccc23)n1"
  EC50: "< 500 nM"
- MOL SMILES: "Cc1cc(NS(=O)(=O)c2ccc(OC(C)C)cc2)n(-c2cccc3ncccc23)n1"
  EC50: "501 to 2500 nM"
- MOL SMILES: "Cc1cc(NS(=O)(=O)c2ccc(C(C)(C)C)cc2)n(-c2ccnc3cc(F)ccc23)n1"
  EC50: "501 to 2500 nM"
- MOL SMILES: "Cc1cc(NS(=O)(=O)c2ccc(C(C)(C)C)c(F)c2)n(-c2cccc3nc(N)ccc23)n1"
  EC50: "< 500 nM"
- MOL SMILES: "COCc1cc(NS(=O)(=O)c2ccc(C(C)(C)C)cc2)n(-c2cccc3ncccc23)n1"
  EC50: "< 500 nM"
- MOL SMILES: "Cc1cc(NS(=O)(=O)c2ccc(OCC(C)C)cc2)n(-c2cccc3ncccc23)n1"
  EC50: "> 2500 nM"
- MOL SMILES: "COc1ccc(-n2nc(C)cc2NS(=O)(=O)c2ccc(C(C)(C)C)c(F)c2)c2cccnc12"
  EC50: "< 500 nM"
- MOL SMILES: "Cc1cc(NS(=O)(=O)c2ccc(C(C)(C)C)cc2)n(-c2cnc(N)c3ccccc23)n1"
  EC50: "501 to 2500 nM"

Return reported EC50 values for all items listed beneath this line.
1. CCOc1ccc(-n2nc(C)cc2NS(=O)(=O)c2ccc(C(C)(C)C)cc2)c2cccnc12
2. Cc1cc(NS(=O)(=O)c2ccc(C(C)(C)C)cc2)n(-c2nccc3ncccc23)n1

[reply]
501 to 2500 nM
501 to 2500 nM
